Test system: Pseudomonas aeruginosa
experiment.summary: Antibacterial activity against Pseudomonas aeruginosa ATCC 27853 after 18 hrs by agar dilution method
Format: functional
condition.parameters: ATCC 27853, 18 h
Bridge positions count the residues as written; N and C are the ends. Square brackets hold non-standard residues; d marks the D form. Peptide text beside a SMILES is read from it. * marks the point of attachment. X1 = CC[C@H](C)CCCCC(=O)*; Dab = NCC[C@H](N)C(=O)O
metric: MIC (µg/mL)
// units = µg/mL; emit number, no label

CC[C@H](C)CCCCC(=O)N[C@@H](CCN)C(=O)N[C@H](C(=O)N[C@H](CO)C(=O)N[C@H]1CCNC(=O)[C@H]([C@@H](C)O)NC(=O)[C@H](CCN)NC(=O)[C@H](CCN)NC(=O)[C@H]([C@@H](C)O)NC(=O)[C@@H](CC(C)C)NC(=O)[C@H](CCN)NC1=O)[C@@H](C)O (X1-[Dab]T[dS][Dab][Dab][dL]T[Dab][Dab]T; lactam 4-C)    2

Lookup: Which MIC value belongs to "CC[C@H](C)CCCCC(=O)N[C@@H](CCN)C(=O)N[C@H](C(=O)N[C@@H](CCN)C(=O)N[C@H]1CCNC(=O)[C@H]([C@@H](C)O)NC(=O)[C@H](CCN)NC(=O)[C@H](CCN)NC(=O)[C@H]([C@@H](C)CC)NC(=O)[C@@H](CC(C)C)NC(=O)[C@H](CCN)NC1=O)[C@@H](C)O" ?
Found: 2

Lookup: Dear colleague, I am looking for the recorded MIC of the following compound: CC[C@H](C)CCCCC(=O)N[C@@H](CCN)C(=O)N[C@H](C(=O)N[C@@H](CCN)C(=O)N[C@H]1CCNC(=O)[C@H]([C@@H](C)O)NC(=O)[C@H](CCN)NC(=O)[C@H](CCN)NC(=O)[C@H](C(C)C)NC(=O)[C@@H](CC(C)C)NC(=O)[C@H](CCN)NC1=O)[C@@H](C)O (X1-[Dab]T[Dab][Dab][Dab][dL]V[Dab][Dab]T; lactam 4-C)
Found: 2
